# targetOfAssay: mouse active MMP9 (mouse, UniProt P41245 108-730, limits assumed)
# Sequence (P41245 108-730 limits assumed): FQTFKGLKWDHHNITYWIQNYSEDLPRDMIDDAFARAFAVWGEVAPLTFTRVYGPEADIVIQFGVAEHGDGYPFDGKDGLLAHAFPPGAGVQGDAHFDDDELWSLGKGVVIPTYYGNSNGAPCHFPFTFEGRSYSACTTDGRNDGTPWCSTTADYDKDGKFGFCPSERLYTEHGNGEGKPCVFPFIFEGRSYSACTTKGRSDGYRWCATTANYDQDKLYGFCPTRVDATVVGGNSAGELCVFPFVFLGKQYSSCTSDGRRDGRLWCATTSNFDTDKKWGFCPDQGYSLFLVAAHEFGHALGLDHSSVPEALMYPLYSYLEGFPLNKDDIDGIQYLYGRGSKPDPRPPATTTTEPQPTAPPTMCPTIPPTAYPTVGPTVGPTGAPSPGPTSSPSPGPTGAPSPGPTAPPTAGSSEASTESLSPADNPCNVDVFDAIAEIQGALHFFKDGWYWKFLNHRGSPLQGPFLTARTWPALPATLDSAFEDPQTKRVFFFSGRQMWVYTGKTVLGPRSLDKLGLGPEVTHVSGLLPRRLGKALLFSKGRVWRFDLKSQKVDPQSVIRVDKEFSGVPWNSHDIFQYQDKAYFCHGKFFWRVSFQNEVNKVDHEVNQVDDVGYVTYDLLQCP
# experimentalDetails: cell-based or functional assay
// reported IC50 (nM), MMP9 gelatin assay for each item listed
Report as a plain number; the unit nM is understood.

binder	displayUnit	IC50 (nM), MMP9 gelatin assay
F20-VH-GL1-V4-V9-V14/B08-VL-GL6c (antibody, human IgG4 S228P, V domains shown) VH: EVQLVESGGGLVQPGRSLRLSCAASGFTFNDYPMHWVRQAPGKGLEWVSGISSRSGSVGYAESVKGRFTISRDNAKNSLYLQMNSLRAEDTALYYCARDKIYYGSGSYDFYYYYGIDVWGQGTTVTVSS VL: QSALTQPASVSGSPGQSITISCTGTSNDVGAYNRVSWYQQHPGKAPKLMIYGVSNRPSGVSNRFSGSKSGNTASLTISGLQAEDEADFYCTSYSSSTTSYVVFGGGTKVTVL	nM	2.37

Any idea what IC50 (nM), MMP9 gelatin assay was measured for F20-VH-GL1-V4-V9/B08-VL-GL6c (antibody, human IgG4 S228P, V domains shown, The light chain constant region is not tied to it; also called F20-VH/B08-VLc variant; F20-VH/B08-VLc) VH: EVQLVESGGGLVQPGRSLRLSCAASGFTFNDYPMHWVRQAPGKGLEWVSGISSRSGSVGYAESVKGRFTISRDNAKNSLYLQMNSLRAEDTALYYCARDKIYYGSGSYDFYYYYGMDVWGQGTTVTVSS VL: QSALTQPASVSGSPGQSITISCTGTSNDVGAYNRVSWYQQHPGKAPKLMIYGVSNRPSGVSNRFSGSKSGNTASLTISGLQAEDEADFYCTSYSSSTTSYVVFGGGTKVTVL ?
1.27

Values were extracted from patent US20170233495A1.
